TARGET: PKC delta kinase (Homo sapiens)
EXPERIMENT_NOTES: PKC Delta coupled-enzyme kinase assay
Type: biochemical
PARTICULARS: 46 nM PKC delta, 150 μM ATP, 30° C.; read-out: Ki PKC delta
pKi: −log10 of the molar value.

{"COMPOUND": "Nc1ncccc1C(=O)c1cccc(N2CCCN(C(=O)Cc3ccccc3)CC2)n1 [compound 33]", "pKi": "6.30 to 7.30"}
{"COMPOUND": "CN1CCCN(c2cccc(C(=O)c3cc(Br)cnc3N)n2)CC1 [compound 67]", "pKi": "6.30 to 7.30"}
{"COMPOUND": "Nc1ncc(CCc2ccccc2)cc1C(=O)c1cccc(N2CCCNCC2)n1 [compound 187]", "pKi": "6.30 to 7.30"}
{"COMPOUND": "C=Cc1ccc(N2CCNCC2)nc1C(=O)c1cccnc1N [compound 342]", "pKi": "6.30 to 7.30"}
{"COMPOUND": "Nc1ncc(-c2cccs2)cc1C(=O)c1cccc(N2CCNC(c3ccccc3)C2)n1 (centres unmarked) [compound 263]", "pKi": "6.30 to 7.30"}

====

TARGET: PKC delta kinase (Homo sapiens, UniProt Q05655)
Sequence (Q05655 whole entry): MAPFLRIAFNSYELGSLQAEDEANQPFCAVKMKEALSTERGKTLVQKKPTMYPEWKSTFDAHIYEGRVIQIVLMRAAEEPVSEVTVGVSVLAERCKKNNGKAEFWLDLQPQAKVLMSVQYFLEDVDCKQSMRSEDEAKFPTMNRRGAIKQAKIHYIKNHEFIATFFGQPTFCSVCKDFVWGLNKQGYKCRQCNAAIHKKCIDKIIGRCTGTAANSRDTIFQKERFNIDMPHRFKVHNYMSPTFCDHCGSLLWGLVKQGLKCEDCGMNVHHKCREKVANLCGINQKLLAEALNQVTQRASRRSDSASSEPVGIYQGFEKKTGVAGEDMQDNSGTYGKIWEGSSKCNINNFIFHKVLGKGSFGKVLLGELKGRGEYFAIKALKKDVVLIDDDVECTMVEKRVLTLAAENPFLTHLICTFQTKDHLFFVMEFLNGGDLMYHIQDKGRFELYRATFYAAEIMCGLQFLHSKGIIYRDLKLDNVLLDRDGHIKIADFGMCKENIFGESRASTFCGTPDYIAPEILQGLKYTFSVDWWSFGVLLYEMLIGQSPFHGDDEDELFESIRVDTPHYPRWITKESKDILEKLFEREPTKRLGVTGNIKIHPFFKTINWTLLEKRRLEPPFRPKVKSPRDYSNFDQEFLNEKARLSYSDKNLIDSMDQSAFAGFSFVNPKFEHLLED
EXPERIMENT_NOTES: PKC Delta coupled-enzyme kinase assay
Format: biochemical
PARTICULARS: 46 nM PKC delta, 150 μM ATP, 30° C.; read-out: Ki PKC delta

{"COMPOUND": "COc1cccc(-c2cnc(N)c(C(=O)c3cccc(N4CCNC(c5ccccc5)C4)n3)c2)c1 (centres unmarked)", "Ki": "50 to 500 nM"}
{"COMPOUND": "Cc1sc(N2CCNC(c3ccccc3)C2)nc1C(=O)c1cccnc1N (centres unmarked)", "Ki": "500 to 2800 nM"}
{"COMPOUND": "C=Cc1cnc(N)c(C(=O)c2cccc(N3CCCN(C)CC3)n2)c1", "Ki": "50 to 500 nM"}
{"COMPOUND": "Nc1ncc(Br)cc1C(=O)c1cccc(N2CCNC(c3ccccc3)C2)n1 (centres unmarked)", "Ki": "50 to 500 nM"}
{"COMPOUND": "CC(C)=Cc1cnc(N)c(C(=O)c2cccc(N3CCCNCC3)n2)c1", "Ki": "50 to 500 nM"}

====

TARGET: PKC delta kinase (Homo sapiens)
EXPERIMENT_NOTES: PKC Delta coupled-enzyme kinase assay
Assay type: biochemical
PARTICULARS: 46 nM PKC delta, 150 μM ATP, 30° C.; read-out: Ki PKC delta

{"MOLECULE": "Nc1ncccc1C(=O)c1nc(N2CCNC(c3ccccc3)C2)ccc1C(F)(F)F (stereo not drawn)", "Ki": "50 to 500 nM"}
{"MOLECULE": "Nc1ncccc1C(=O)c1cccc(N2CCCN(C(=O)CCC(F)(F)F)CC2)n1", "Ki": "500 to 2800 nM"}
{"MOLECULE": "CC(C)C(CO)Nc1ccc(C(F)(F)F)c(C(=O)c2cccnc2N)n1 (stereo not drawn)", "Ki": "500 to 2800 nM"}
{"MOLECULE": "CC(C)[C@H](N)COc1ccc(C(F)(F)F)c(C(=O)c2cccnc2N)n1", "Ki": "500 to 2800 nM"}
{"MOLECULE": "Nc1ncc(-c2ccccc2)cc1C(=O)c1cccc(N2CCNCC2)n1", "Ki": "50 to 500 nM"}
{"MOLECULE": "Cc1ccc(N2CCNC(c3ccccc3)C2)nc1C(=O)c1cccnc1N (stereo not drawn)", "Ki": "50 to 500 nM"}
{"MOLECULE": "Nc1ncccc1C(=O)c1nc(N2CCNC(c3ccccc3)C2)ccc1OC(F)F (stereo not drawn)", "Ki": "50 to 500 nM"}
{"MOLECULE": "CC[C@@H]1CNCCN1c1cccc(C(=O)c2cccnc2N)n1", "Ki": "50 to 500 nM"}
{"MOLECULE": "CC(C)C(=O)N1CCCN(c2cccc(C(=O)c3cccnc3N)n2)CC1", "Ki": "500 to 2800 nM"}
